EXPERIMENT SUMMARY: In vivo formation of NAFB1 and NAHFB1 in rat kidney and liver (HPLC-ESI-MS/MS)
Set-up: unit not given here
CONDITION DETAILS: Kidney; treatment FB1 1 mg/kg BW ip, 5 days
MEASURED METRIC: N-acyl-derivative in tissue sample, analysis a

Find the recorded N-acyl-derivative in tissue sample, analysis a belonging to `CCCCCCCCCCCCCCCCCC(=O)N[C@@H](C)[C@@H](O)C[C@H](O)CCCC[C@@H](O)C[C@H](C)C[C@H](O)[C@H](O)[C@H](C)CCCC` and report it. 0,1

Find the recorded N-acyl-derivative in tissue sample, analysis a belonging to `CCCCCCCC/C=C\CCCCCCCCCCCCCC(=O)N[C@@H](C)[C@@H](O)C[C@H](O)CCCC[C@@H](O)C[C@H](C)C[C@H](O)[C@H](O)[C@H](C)CCCC` and report it. 0,4

Find the recorded N-acyl-derivative in tissue sample, analysis a belonging to CCCCCCCCCCCCCCCC(=O)NC(C)C(O)CC(O)CCCCC(O)CC(C)CC(OC(=O)CC(CC(=O)O)C(=O)O)C(OC(=O)CC(CC(=O)O)C(=O)O)C(C)CCCC (stereo not drawn) and report it. 14,4

----------
EXPERIMENT SUMMARY: In vivo formation of NAFB1 and NAHFB1 in rat kidney and liver (HPLC-ESI-MS/MS)
Design: unit not given here
CONDITION DETAILS: Liver; treatment HFB1 1 mg/kg BW ip, 5 days
MEASURED METRIC: N-acyl-derivative in tissue sample, analysis a

Find the recorded N-acyl-derivative in tissue sample, analysis a belonging to CCCCCCCCCCCCCCCCCCCCCC(=O)NC(C)C(O)CC(O)CCCCC(O)CC(C)CC(OC(=O)CC(CC(=O)O)C(=O)O)C(OC(=O)CC(CC(=O)O)C(=O)O)C(C)CCCC (stereo not drawn) [FB1C22:0] and report it. 0,0

Find the recorded N-acyl-derivative in tissue sample, analysis a belonging to CCCCCCCCCCCCCCCCCC(=O)NC(C)C(O)CC(O)CCCCC(O)CC(C)CC(OC(=O)CC(CC(=O)O)C(=O)O)C(OC(=O)CC(CC(=O)O)C(=O)O)C(C)CCCC (stereo not drawn) [FB1C18:0] and report it. 0,0

Find the recorded N-acyl-derivative in tissue sample, analysis a belonging to CCCCCCCCCCCCCCCCCCCC(=O)NC(C)C(O)CC(O)CCCCC(O)CC(C)CC(OC(=O)CC(CC(=O)O)C(=O)O)C(OC(=O)CC(CC(=O)O)C(=O)O)C(C)CCCC (stereo not drawn) [FB1C20:0] and report it. 0,0

Find the recorded N-acyl-derivative in tissue sample, analysis a belonging to CCCCCCCCCCCCCCCC(=O)NC(C)C(O)CC(O)CCCCC(O)CC(C)CC(OC(=O)CC(CC(=O)O)C(=O)O)C(OC(=O)CC(CC(=O)O)C(=O)O)C(C)CCCC (stereo not drawn) [FB1C16:0] and report it. 0,0

Find the recorded N-acyl-derivative in tissue sample, analysis a belonging to CCCCCCCC/C=C\CCCCCCCCCCCCCC(=O)N[C@@H](C)[C@@H](O)C[C@H](O)CCCC[C@@H](O)C[C@H](C)C[C@H](O)[C@H](O)[C@H](C)CCCC [HFB1C24:1] and report it. 156,0

Find the recorded N-acyl-derivative in tissue sample, analysis a belonging to CCCCCCCCCCCCCCCCCC(=O)N[C@@H](C)[C@@H](O)C[C@H](O)CCCC[C@@H](O)C[C@H](C)C[C@H](O)[C@H](O)[C@H](C)CCCC [HFB1C18:0] and report it. 1,5

Find the recorded N-acyl-derivative in tissue sample, analysis a belonging to CCCCCCCCCCCCCCCCCCCC(=O)N[C@@H](C)[C@@H](O)C[C@H](O)CCCC[C@@H](O)C[C@H](C)C[C@H](O)[C@H](O)[C@H](C)CCCC [HFB1C20:0] and report it. 8,9

Find the recorded N-acyl-derivative in tissue sample, analysis a belonging to CCCCCCCCCCCCCCCCCCCCCCCC(=O)NC(C)C(O)CC(O)CCCCC(O)CC(C)CC(OC(=O)CC(CC(=O)O)C(=O)O)C(OC(=O)CC(CC(=O)O)C(=O)O)C(C)CCCC (stereo not drawn) [FB1C24:0] and report it. 0,0

Find the recorded N-acyl-derivative in tissue sample, analysis a belonging to CCCCCCCCC=CCCCCCCCCCCCCCC(=O)NC(C)C(O)CC(O)CCCCC(O)CC(C)CC(OC(=O)CC(CC(=O)O)C(=O)O)C(OC(=O)CC(CC(=O)O)C(=O)O)C(C)CCCC (stereo not drawn) [FB1C24:1] and report it. 0,0

Find the recorded N-acyl-derivative in tissue sample, analysis a belonging to CCCCCCCCCCCCCCCC(=O)N[C@@H](C)[C@@H](O)C[C@H](O)CCCC[C@@H](O)C[C@H](C)C[C@H](O)[C@H](O)[C@H](C)CCCC [HFB1C16:0] and report it. 34,9

Find the recorded N-acyl-derivative in tissue sample, analysis a belonging to CCCCCCCCCCCCCCCCCCCCCCCC(=O)N[C@@H](C)[C@@H](O)C[C@H](O)CCCC[C@@H](O)C[C@H](C)C[C@H](O)[C@H](O)[C@H](C)CCCC [HFB1C24:0] and report it. 25,0

Find the recorded N-acyl-derivative in tissue sample, analysis a belonging to CCCCCCCCCCCCCCCCCCCCCC(=O)N[C@@H](C)[C@@H](O)C[C@H](O)CCCC[C@@H](O)C[C@H](C)C[C@H](O)[C@H](O)[C@H](C)CCCC [HFB1C22:0] and report it. 61,0
